Experiment: in vivo
Set-up: species or system Balb/c nu/nu mice
Details: female, Balb/c nu/nu, mouse, iv, 1 MBq, total radioactivity, Activity concentration in kidney
Procedure: Organ distribution studies were carried out in 9-week-old female Balb/c nu/nu mice (Charles River WIGA), carrying subcutaneously transplanted human pancreatic cancer BxPC3 tumors. […] Tumor, blood, and healthy tissues were removed, weighed, and measured with a γ-counter (LB […]; Berthold Technologies). […] To avoid bias due to blood background radioactivity, uptake in blood-free organs was determined with perfusion experiments. […]
Where a SMILES comes first, the peptide text is derived from it. [ ]: non-standard residue; d: D form. Tyr(3-I) = N[C@@H](Cc1ccc(O)c(I)c1)C(=O)O

{"compound": "CC[C@H](C)[C@H](N)C(=O)N1CCC[C@H]1C(=O)N[C@@H](CC(C)C)C(=O)N1CCC[C@H]1C(=O)N1CCC[C@H]1C(=O)N1CCC[C@H]1C(=O)N[C@@H](CO)C(=O)N[C@@H](CCCNC(=N)N)C(=O)N1CCC[C@H]1C(=O)N[C@@H](Cc1ccccc1)C(=O)N[C@@H](Cc1ccccc1)C(=O)N[C@@H](CCCCN)C(=O)N[C@@H](Cc1ccc(O)c(I)c1)C(N)=O [^131I-labeled PDGFR-P1] (H-IPLPPPSRPFFK[Tyr(3-I)]-NH2; N-terminus assumed)", "tissue uptake at 0.25 h [%ID/g]": 10.6}

* * *

assay: in vivo; design: species or system Balb/c nu/nu mice; conditions: female, Balb/c nu/nu, mouse, iv, 1 MBq, total radioactivity, Tumor-to-organ ratio, Intestinum
Where a SMILES comes first, the peptide text is derived from it. [ ]: non-standard residue; d: D form. Tyr(3-I) = N[C@@H](Cc1ccc(O)c(I)c1)C(=O)O

{"compound": "CC[C@H](C)[C@H](N)C(=O)N1CCC[C@H]1C(=O)N[C@@H](CC(C)C)C(=O)N1CCC[C@H]1C(=O)N1CCC[C@H]1C(=O)N1CCC[C@H]1C(=O)N[C@@H](CO)C(=O)N[C@@H](CCCNC(=N)N)C(=O)N1CCC[C@H]1C(=O)N[C@@H](Cc1ccccc1)C(=O)N[C@@H](Cc1ccccc1)C(=O)N[C@@H](CCCCN)C(=O)N[C@@H](Cc1ccc(O)c(I)c1)C(N)=O [^131I-labeled PDGFR-P1] (H-IPLPPPSRPFFK[Tyr(3-I)]-NH2; N-terminus assumed)", "tissue to tissue ratio at 0.25 h": 1.43}

* * *

test: in vivo; set-up: species or system Balb/c nu/nu mice; conditions: female, Balb/c nu/nu, mouse, iv, 1 MBq, total radioactivity, Tumor accumulation
Where a SMILES comes first, the peptide text is derived from it. [ ]: non-standard residue; d: D form. Tyr(3-I) = N[C@@H](Cc1ccc(O)c(I)c1)C(=O)O
endpoint: tissue uptake at 0.25 h

{"compound": "CC[C@H](C)[C@H](N)C(=O)N1CCC[C@H]1C(=O)N[C@@H](CC(C)C)C(=O)N1CCC[C@H]1C(=O)N1CCC[C@H]1C(=O)N1CCC[C@H]1C(=O)N[C@@H](CO)C(=O)N[C@@H](CCCNC(=N)N)C(=O)N1CCC[C@H]1C(=O)N[C@@H](Cc1ccccc1)C(=O)N[C@@H](Cc1ccccc1)C(=O)N[C@@H](CCCCN)C(=O)N[C@@H](Cc1ccc(O)c(I)c1)C(N)=O [^131I-labeled PDGFR-P1] (H-IPLPPPSRPFFK[Tyr(3-I)]-NH2; N-terminus assumed)", "recordedMeasurement": "3.2 %ID/g"}

* * *

test: in vivo; set-up: species or system Balb/c nu/nu mice; conditions: female, Balb/c nu/nu, mouse, iv, 1 MBq, total radioactivity, Tumor-to-organ ratio, Spleen
Where a SMILES comes first, the peptide text is derived from it. [ ]: non-standard residue; d: D form. Tyr(3-I) = N[C@@H](Cc1ccc(O)c(I)c1)C(=O)O

{"molecule": "CC[C@H](C)[C@H](N)C(=O)N1CCC[C@H]1C(=O)N[C@@H](CC(C)C)C(=O)N1CCC[C@H]1C(=O)N1CCC[C@H]1C(=O)N1CCC[C@H]1C(=O)N[C@@H](CO)C(=O)N[C@@H](CCCNC(=N)N)C(=O)N1CCC[C@H]1C(=O)N[C@@H](Cc1ccccc1)C(=O)N[C@@H](Cc1ccccc1)C(=O)N[C@@H](CCCCN)C(=O)N[C@@H](Cc1ccc(O)c(I)c1)C(N)=O [^131I-labeled PDGFR-P1] (H-IPLPPPSRPFFK[Tyr(3-I)]-NH2; N-terminus assumed)", "tissue to tissue ratio at 0.25 h": 1.42}
